These data points were gathered from PubChem BioAssay.

- method: binders of probe aFSTL3 on microarray, primary screen, stem cell growth factor project, biochemical, small-molecule microarray, fluorescence 635/667 (AID 1064);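 note: measures binding of the biotinylated anti-FSTL3 antibody to printed compounds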
- condition set: higher = more signal
value kind: composite z-score
# output: bare number, no unit

Req: Give the measured composite z-score for COCCOC(=O)N1C(=O)[C@@]2(c3cc(C#CCCO)ccc31)[C@H](C(=O)Nc1nc3ccccc3s1)[C@H]1C(=O)O[C@H](c3ccccc3)[C@H](c3ccccc3)N1[C@@H]2c1ccccc1OCCO
Resp: -0.224

Req: Give the measured composite z-score for O=C1C2C=CC(C(O)c3ccc(F)cc3)N(n3cnnc3)C2C(=O)N1Cc1ccccc1 (stereo not given)
Resp: 0.352

Req: Give the measured composite z-score for O=C1C2C=CC(C(O)c3ccccc3)N(Nc3ccccc3F)C2C(=O)N1c1ccccc1 (stereo not given)
Resp: -0.283

Req: Give the measured composite z-score for CCCNC(=O)[C@@H]1c2ccccc2C(=O)N(C(C)C)[C@H]1c1ccc(CO)cc1
Resp: 0.277

Req: Give the measured composite z-score for C[C@@H]1NC(=O)[C@@]23C(=O)N[C@@H](Cc4ccccc4)C2[C@H](C)[C@@]2(C)O[C@H]2C3/C=C/C/C=C\CNC(=O)[C@@H]2CCCN2C1=O (stereo not given in full)
Resp: -0.301

Req: Give the measured composite z-score for [N-]=[N+]=NCc1ccccc1C[C@]1(C(N)=O)N=C(c2ccc(OCCCO)cc2)O[C@H]1c1ccccc1
Resp: 0.124

Req: Give the measured composite z-score for O=C1OCC=C[C@H]2OC34C=CCN(Cc5ccccc5)C(=O)[C@H]3N(CCCCCCO)C(=O)[C@@H]4[C@@H]12 (stereo not given in full)
Resp: 0.329

Req: Give the measured composite z-score for CCOC(=O)C1=CC[C@@H](c2cccc(Cl)c2)N(S(=O)(=O)c2ccc(C)cc2)C1
Resp: 0.432

Req: Give the measured composite z-score for C=C(C(=O)CC[C@@H](OC(C)=O)c1ccc(CO)o1)C(C)C
Resp: -0.0468

Req: Give the measured composite z-score for C[N+](C)(C)CCCC[C@@H]1NC(=O)[C@H]2C[C@@H](C(=O)NCCCCCCN)[C@@H](c3ccc(O)cc3)N2C1=O
Resp: 0.239

Req: Give the measured composite z-score for COc1ccc(NC(=O)O[C@H]2[C@H](OC(=O)Nc3ccccc3)[C@H](OC(=O)Nc3ccccc3)[C@@H](OC)O[C@@H]2CO)cc1
Resp: 0.474

Req: Give the measured composite z-score for C=CCC(OC(C)=O)[C@@H]1[C@@H](N(Cc2cc3ccccc3o2)C(=O)c2ccc(C)cc2)c2cc(OCCCO)ccc2N1C(=O)Cc1ccc(OC)cc1 (stereo not given in full)
Resp: -0.18

Req: Give the measured composite z-score for CN(C)CCCCNC(=O)[C@@H]1C[C@@H]2C(=O)N[C@@H](Cc3ccccc3)C(=O)N2[C@@H]1c1cccc(OCCO)c1
Resp: -0.185

Req: Give the measured composite z-score for C=CC[C@@]1(C(=O)N2CCOCC2)N=C(c2ccc(OCCCO)cc2)O[C@@H]1c1ccccc1CN=[N+]=[N-]
Resp: -0.0448

Req: Give the measured composite z-score for O=C(NCC(F)(F)F)[C@@H]1c2ccccc2C(=O)N(Cc2cc(F)cc(C(F)(F)F)c2)[C@H]1c1ccc(CO)cc1
Resp: 0.148
